Answer each item with its documented pIC50.
target: NRAS Q61K (Homo sapiens, UniProt P01111+P62937, Q61K); test: Ras-Raf disruption / FRET / MOA assay (BRAF RBD); type: biochemical; conditions: NRAS Q61K; read-out: NRAS Q61K FRET data IC50
Sequence (P01111 whole entry Q61K): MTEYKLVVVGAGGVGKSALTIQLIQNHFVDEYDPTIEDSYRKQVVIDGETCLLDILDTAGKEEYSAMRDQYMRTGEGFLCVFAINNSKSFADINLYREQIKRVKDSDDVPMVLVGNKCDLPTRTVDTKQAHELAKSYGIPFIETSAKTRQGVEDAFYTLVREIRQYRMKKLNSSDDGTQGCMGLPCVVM
Sequence (P62937 whole entry): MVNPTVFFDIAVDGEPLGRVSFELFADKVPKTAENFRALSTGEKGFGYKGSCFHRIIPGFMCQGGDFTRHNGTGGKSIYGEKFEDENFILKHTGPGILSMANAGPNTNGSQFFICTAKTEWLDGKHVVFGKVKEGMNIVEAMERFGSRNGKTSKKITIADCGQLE
pIC50: −log10 of the molar value.

Noted for CCn1c(-c2cccnc2[C@H](C)OC)c2c3cc(ccc31)-c1csc(n1)C[C@H](NC(=O)[C@H](C(C)C)N(C)C(=O)N1CC[C@H](N(C)C(=O)[C@@H]3CN3)C1)C(=O)N1CCC[C@H](N1)C(=O)OCC(C)(C)C2 (atropisomer, axis not shown) : its pIC50 reads 7.00 to 8.00

Noted for CCn1c(-c2cccnc2[C@H](C)OC)c2c3cc(ccc31)-c1csc(n1)C[C@H](NC(=O)[C@H](C(C)C)N(C)C(=O)N(C)C1CN(C(=O)[C@H]3CN3)C1)C(=O)N1CCC[C@H](N1)C(=O)OCC(C)(C)C2 : its pIC50 reads 7.00 to 8.00

Noted for CCn1c(-c2cccnc2[C@H](C)OC)c2c3cc(ccc31)-c1cc(O)cc(c1)C[C@H](NC(=O)[C@H](C(C)C)N(C)C(=O)c1nc(NC(=O)[C@H]3CN3)cs1)C(=O)N1CCC[C@H](N1)C(=O)OCC(C)(C)C2 (atropisomer, axis not shown) : its pIC50 reads 6.00 to 7.00

Noted for CCn1c(-c2cccnc2[C@H](C)OC)c2c3cc(ccc31)-c1csc(n1)C[C@H](NC(=O)[C@H](C(C)C)N(C)C(=O)N(C)[C@H]1CCCN(C(=O)[C@H]3CN3)C1)C(=O)N1CCC[C@H](N1)C(=O)OCC(C)(C)C2 (atropisomer, axis not shown) : its pIC50 reads 6.00 to 7.00

Noted for CCn1c(-c2cccnc2[C@H](C)OC)c2c3cc(ccc31)-c1cc(O)cc(c1)C[C@H](NC(=O)[C@H](C(C)C)N(C)C(=O)[C@H]1CCCN(C(=O)[C@@H]3CN3)C1)C(=O)N1CCC[C@H](N1)C(=O)OCC(C)(C)C2 : its pIC50 reads 5.00 to 6.00

Let us move to another entry and its pIC50.
Noted for CCn1c(-c2cccnc2[C@H](C)OC)c2c3cc(ccc31)-c1cc(O)cc(c1)C[C@H](NC(=O)[C@H](C(C)C)N(C)C(=O)[C@H]1CCN(C(=O)C3CO3)C1)C(=O)N1CCC[C@H](N1)C(=O)OCC(C)(C)C2 (stereo partly drawn) : its pIC50 reads 6.00 to 7.00
